biological target: EGFR (pY1068) in H1975 cell (T790M/L858R) (Homo sapiens (Human), UniProt P00533, L858R/T790M); test: pEGFR sandwich ELISA assay (Examples B-2, B-3, Table 21); format: cell-based
Sequence (P00533 25-1210 T790M/L858R): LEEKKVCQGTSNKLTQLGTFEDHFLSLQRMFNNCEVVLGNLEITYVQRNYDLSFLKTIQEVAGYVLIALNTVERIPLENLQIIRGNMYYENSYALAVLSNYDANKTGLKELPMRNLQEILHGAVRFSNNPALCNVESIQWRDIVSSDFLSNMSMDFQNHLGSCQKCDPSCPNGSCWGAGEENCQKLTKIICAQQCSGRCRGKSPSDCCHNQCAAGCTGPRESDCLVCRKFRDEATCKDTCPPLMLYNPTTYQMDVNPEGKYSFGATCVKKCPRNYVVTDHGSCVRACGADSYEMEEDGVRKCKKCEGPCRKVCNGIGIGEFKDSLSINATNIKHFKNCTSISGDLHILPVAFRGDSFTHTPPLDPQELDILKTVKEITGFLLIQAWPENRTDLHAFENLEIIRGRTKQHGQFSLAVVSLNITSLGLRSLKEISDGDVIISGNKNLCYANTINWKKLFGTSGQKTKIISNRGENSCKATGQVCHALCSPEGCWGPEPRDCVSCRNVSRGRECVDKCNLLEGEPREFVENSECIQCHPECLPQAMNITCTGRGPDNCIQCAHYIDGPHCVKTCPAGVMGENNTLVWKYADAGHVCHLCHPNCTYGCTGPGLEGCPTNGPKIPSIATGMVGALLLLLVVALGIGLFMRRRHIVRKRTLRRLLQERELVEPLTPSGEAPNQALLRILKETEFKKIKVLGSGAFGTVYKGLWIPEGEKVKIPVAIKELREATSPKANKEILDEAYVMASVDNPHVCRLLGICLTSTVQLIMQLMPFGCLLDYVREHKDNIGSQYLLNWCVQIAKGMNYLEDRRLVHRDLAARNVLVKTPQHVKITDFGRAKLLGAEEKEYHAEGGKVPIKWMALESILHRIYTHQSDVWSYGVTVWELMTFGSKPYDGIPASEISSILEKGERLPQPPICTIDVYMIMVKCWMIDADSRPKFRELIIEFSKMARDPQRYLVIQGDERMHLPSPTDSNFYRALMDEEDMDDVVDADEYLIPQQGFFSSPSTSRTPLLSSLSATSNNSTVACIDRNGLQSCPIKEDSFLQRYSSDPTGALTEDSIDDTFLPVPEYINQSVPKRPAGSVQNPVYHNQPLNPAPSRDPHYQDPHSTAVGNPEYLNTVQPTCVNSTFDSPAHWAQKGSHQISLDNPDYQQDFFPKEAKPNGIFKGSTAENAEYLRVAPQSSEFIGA
Exercise: state measured Selectivity A431/H1975 for each of the compounds provided.

**Query** What measured Selectivity A431/H1975 goes with C=CC(=O)Nc1cccc(Oc2nc(Nc3ccc(N4CCN(C)CC4)nc3)nc3c2ccn3CO)c1 ?
**Result** 113.17

**Query** What measured Selectivity A431/H1975 goes with C=CC(=O)Nc1cccc(Oc2nc(Nc3ccc(N4CCN(C)CC4)c(F)c3)nc3c2ccn3CO)c1 ?
**Result** 232.91

**Query** What measured Selectivity A431/H1975 goes with C=CC(=O)Nc1cccc(Oc2nc(Nc3ccc(N4CCN(C)CC4)nc3)nc3[nH]ccc23)c1 ?
**Result** 300.00

**Query** What measured Selectivity A431/H1975 goes with C=CC(=O)Nc1cccc(Oc2nc(Nc3ccc(N4CCN(C)CC4)cc3)nc3c2ccn3CO)c1 ?
**Result** 162.69

**Query** What measured Selectivity A431/H1975 goes with C=CC(=O)Nc1cccc(Oc2nc(Nc3ccc(NC4CN(CCF)C4)cc3OC)nc3[nH]ccc23)c1 ?
**Result** 92.95
